Listing: MIC of selected molecules
Tested on: Staphylococcus aureus
Write the answer as a number in µg/mL, unit excluded.

COc1ccc(C(=O)c2ccc(N3C[C@H](CNC(C)=O)OC3=O)cc2)cc1 [Example 3]    4
CC(=O)NC[C@H]1CN(c2ccc(C(=O)c3ccc([S+](C)[O-])cc3)cc2)C(=O)O1 (stereo partly drawn) [Example 10]    16
CC(=O)NC[C@H]1CN(c2ccc(C(=O)c3ccc(S(C)(=O)=O)cc3)cc2)C(=O)O1 [Example 11]    4

Given the molecule CC(=O)NC[C@H]1CN(c2ccc(C(=O)c3cccnc3)cc2)C(=O)O1 [Example 15] , what is its reported MIC? 8

What about CC(=O)NC[C@H]1CN(c2ccc(C(=O)c3ccccc3)cc2)C(=O)O1 [Example 2] ? 4

What about CC(=O)NC[C@H]1CN(c2ccc(C(=O)c3ccc(F)cc3F)cc2)C(=O)O1 [Example 6] ? 1

What about CC(=O)NC[C@H]1CN(c2ccc(C(=O)c3cccc(F)c3)cc2)C(=O)O1 [Example 5] ? 8

What about COc1cc(Cl)ccc1C(=O)c1ccc(N2C[C@H](CNC(C)=O)OC2=O)cc1 [Example 7] ? 32

What about CSc1ccc(C(=O)c2ccc(N3C[C@H](CNC(C)=O)OC3=O)cc2)cc1 [Example 8] ? 4

---

Listing: ED50 of selected compounds
System: Staphylococcus Aureus
assay-info: In vivo activity in an acute lethal mouse infection model
conditions-used: sc, 168 h, mice infected intraperitoneally with S. aureus, subcutaneous in sterile distilled water containing 5% dimethylsulfoxide, dosed at one hour and four hours post-infection, survivors on seventh day, read-out: ED₅₀ Subcutaneous Administration
Description: The in vivo potency of these compounds is exemplified by the data summarized in Table V. Determinations of in vivo efficacy are performed by inoculating mice intraperitoneally with cultures of the infecting organism diluted to produce 100% mortality in control animals within twenty-four hours. The culture of S. aureus used to infect the animals was diluted to the required bacterial density using 5% aqueous hog gastric mucin. […]
Write the answer as a number in mg/kg, unit excluded.

Answered cases to consult:
COc1ccc(C(=O)c2ccc(N3C[C@H](CNC(C)=O)OC3=O)cc2)cc1    15
CC(=O)NC[C@H]1CN(c2ccc(C(=O)c3cccnc3)cc2)C(=O)O1    59

# evaluate next
# get_value(readout= ED50, system= Staphylococcus Aureus) for CC(=O)NC[C@H]1CN(c2ccc(C(=O)c3ccc(F)cc3)cc2)C(=O)O1 20

---

Tested on: Staphylococcus Aureus
assay-info: In vivo activity in an acute lethal mouse infection model
conditions-used: 168 h, mice infected intraperitoneally with S. aureus, oral in 0.25% aqueous Methocel, dosed at one hour and four hours post-infection, survivors on seventh day, read-out: ED₅₀ Oral Administration
value-type: ED50

CC(=O)NC[C@H]1CN(c2ccc(C(=O)c3ccc([S+](C)[O-])cc3)cc2)C(=O)O1 (stereo partly drawn)    > 90 mg/kg

Given the compound COc1ccc(C(=O)c2ccc(N3C[C@H](CNC(C)=O)OC3=O)cc2)cc1 , what is its reported ED50? 41 mg/kg

What about CC(=O)NC[C@H]1CN(c2ccc(C(=O)c3cccnc3)cc2)C(=O)O1 ? > 90 mg/kg

What about CC(=O)NC[C@H]1CN(c2ccc(C(O)c3ccccc3)cc2)C(=O)O1 (stereo partly drawn) ? 65 mg/kg

What about CC(=O)NC[C@H]1CN(c2ccc(C(=O)c3ccc(F)cc3)cc2)C(=O)O1 ? 40 mg/kg

What about CC(=O)NC[C@H]1CN(c2ccc(C(=O)c3ccc([N+](=O)[O-])cc3)cc2)C(=O)O1 ? > 90 mg/kg
